Values from patent US7759345B2

Consider the following compounds and their measured LOVO TGI readings.
Tested on: LoVo
assay comment: Inhibition of cells growth by colorimetric assay (SRB), LoVo
Type: cell-based
condition context: SRB assay, 48 hours exposure
Give the figure only, with no unit attached.

These recorded examples may help you get a feel for the data.
# return recorded LOVO TGI for input COc1cc2c(cc1O)CCN[C@]21CS[C@@H]2c3c(O)c(C)c4c(c3[C@H](COC1=O)N1C2[C@H]2c3c(cc(C)c(OC)c3O)C[C@@H]([C@@H]1O)N2C)OCO4 (stereo partly drawn) [Et-701]
1.18E-08

Please give the documented LOVO TGI of COc1cc2c(cc1O)CCN[C@]21CS[C@@H]2c3c(OC(=O)CCCCC4SCC5NC(=O)NC54)c(C)c4c(c3[C@H](COC1=O)N1C2[C@H]2c3c(cc(C)c(OC)c3O)C[C@@H]([C@@H]1O)N2C)OCO4 (stereo partly drawn) [Compound 171]
7.66E-08

Supply LOVO TGI value. Item: COc1cc2c(cc1O)CCN[C@]21CS[C@@H]2c3c(OC(=O)CCCCC4SCC5NC(=O)NC54)c(C)c4c(c3[C@H](COC1=O)N1C2[C@H]2c3c(cc(C)c(OC)c3OC(=O)CCCCC3SCC5NC(=O)NC53)C[C@@H]([C@@H]1O)N2C)OCO4 (stereo partly drawn) [Compound 172]
4.61E-07

Annotate the compound COc1cc2c(cc1O)CCN[C@]21CS[C@@H]2c3c(OC(=O)C(F)(F)C(F)(F)C(F)(F)F)c(C)c4c(c3[C@H](COC1=O)N1C2[C@H]2c3c(cc(C)c(OC)c3O)C[C@@H]([C@@H]1O)N2C)OCO4 (stereo partly drawn) [Compound 167] with its measured LOVO TGI.
6.74E-08

Hello, please tell me recorded LOVO TGI for this one: COc1cc2c(cc1OC(=O)OC(C)(C)C)CCN[C@]21CS[C@@H]2c3c(OC(=O)[C@H](C)NC(=O)OC(C)(C)C)c(C)c4c(c3[C@H](COC1=O)N1C2[C@H]2c3c(cc(C)c(OC)c3O)C[C@@H]([C@@H]1O)N2C)OCO4 (stereo partly drawn) [Compound 175]
4.38E-09

Now for a further compound.
Answer with reported LOVO TGI of C=COC(=O)Oc1c(C)c2c(c3c1[C@H]1SC[C@]4(NCCc5cc(OC(=O)OC(C)(C)C)c(OC)cc54)C(=O)OC[C@@H]3N3C1[C@H]1c4c(cc(C)c(OC)c4O)C[C@@H]([C@@H]3O)N1C)OCO2 (stereo partly drawn) [Compound 176]
5.12E-08

====

Test system: SK-MEL-28
assay comment: Inhibition of cells growth by colorimetric assay (SRB), SK-MEL-28
Type: cell-based
condition context: read-out: MEL-28 LC50; MEL-28; SRB, 48 hours exposure
measure name: CC50

Answer with the recorded CC50 of COc1cc2c(cc1OC(=O)Cc1cc(=O)oc3cc(N(C)C)ccc13)CCN[C@]21CS[C@@H]2c3c(OC(C)=O)c(C)c4c(c3[C@H](COC1=O)N1C2[C@H]2c3c(cc(C)c(OC)c3OC(=O)Cc3cc(=O)oc5cc(N(C)C)ccc35)C[C@@H]([C@@H]1O)N2C)OCO4 (some centres unmarked) [Compound 78] only.
16.9 nM

Next:
Query CC50 for COc1cc2c(cc1OC(=O)Cc1cc(=O)oc3cc(N(C)C)ccc13)CCN[C@]21CS[C@@H]2c3c(OC(C)=O)c(C)c4c(c3[C@H](COC1=O)N1C2[C@H]2c3c(cc(C)c(OC)c3OC(=O)Cc3cc(=O)oc5cc(N(C)C)ccc35)C[C@@H]([C@@H]1O)N2C)OCO4 (some centres unmarked) [Compound 77]
0.962 nM
